subject of test: T1, Human BCMA (human, UniProt Q02223 1-54, limits assumed)
T1 construct: also called huBCMA; B-cell maturation antigen
T1 sequence (looked up): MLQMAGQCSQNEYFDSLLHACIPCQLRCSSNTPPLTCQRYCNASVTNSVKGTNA
assay method text: SPR, IgG immobilised, human BCMA analyte
assay metric: pKd
Answers are plain numbers, as −log10 of the molar value.

Example cases with answers are listed next.
Measured pKd of A02_Rd4_6nM_C22 (antibody, V domains shown, IgG) VH: EVQLLESGGGLVQPGGSLRLSCAASGFTFSSYAMNWVRQAPGKGLEWVSAVLDSGGSTYYADSVKGRFTISRDNSKNTLYLQMNSLRAEDTAVYYCARYWPMTPWGQGTLVTVSS VL: EIVLTQSPGTLSLSPGERATLSCRASQSVSSSYLAWYQQKPGQAPRLLMYDASIRATGIPDRFSGSGSGTDFTLTISRLEPEDFAVYYCQQYQVWPLTFGQGTKVEIK : 10.27

// field: pKd; key: A02_Rd4_0.6nM_C01 (antibody, V domains shown, IgG; also called P5AC1) VH: EVQLLESGGGLVQPGGSLRLSCAASGFTFSSYAMNWVRQAPGKGLEWVSAILSSGGSTYYADSVKGRFTISRDNSKNTLYLQMNSLRAEDTAVYYCARYWPMDIWGQGTLVTVSS VL: EIVLTQSPGTLSLSPGERATLSCRGGQSVSSSYLAWYQQKPGQAPRLLMYDASIRATGIPDRFSGSGSGTDFTLTISRLEPEDFAVYYCQQYQSWPLTFGQGTKVEIK ; value = 9.71

So for COMBO_Rd4_6nM_C22 (antibody, V domains shown, IgG) VH: EVQLLESGGGLVQPGGSLRLSCAASGFTFSSYAMNWVRQAPGKGLEWVSACLDSGGSTYYADSVKGRFTISRDNSKNTLYLQMNSLRAEDTAVYYCARYWPMDSWGQGTLVTVSS VL: EIVLTQSPGTLSLSPGERATLSCRASQSVSSSYLAWYQQKPGQAPRLLMYDASIRATGIPDRFSGSGSGTDFTLTISRLEPEDFAVYYCQQYQGWPLTFGQGTKVEIK , the logged pKd turned out to be 9.59

Recorded pKd (binder COMBO_Rd4_6nM_C25 (antibody, V domains shown, IgG) VH: EVQLLESGGGLVQPGGSLRLSCAASGFTFSSYPMSWVRQAPGKGLEWVSAIGGSGGSTYYADSVKGRFTISRDNSKNTLYLQMNSLRAEDTAVYYCARYWPMDPWGQGTLVTVSS VL: EIVLTQSPGTLSLSPGERATLSCRASQSVSSPYLAWYQQKPGQAPRLLMYDASIRATGIPDRFSGSGSGTDFTLTISRLEPEDFAVYYCQQYQSWPLTFGQGTKVEIK ): 10.85

For the next question, use this binder.
Given item A02_Rd4_6nM_C07 (antibody, V domains shown, IgG) VH: EVQLLESGGGLVQPGGSLRLSCAASGFTFSSYAMNWVRQAPGKGLEWVSAIGGSGGSLPYADSVKGRFTISRDNSKNTLYLQMNSLRAEDTAVYYCARYWPMDSWGQGTLVTVSS VL: EIVLTQSPGTLSLSPGERATLSCRASQSVSPYYLAWYQQKPGQAPRLLMYDASIRATGIPDRFSGSGSGTDFTLTISRLEPEDFAVYYCQQYERWPLTFGQGTKVEIK , the value recorded as its pKd is 9.89
